For each entry below, report its inhibition value.
Tested on: Leucine-rich repeat serine/threonine-protein kinase 2 (Homo sapiens), Q5S007 [G2019S]
Sequence (Q5S007 whole entry G2019S, the tested form may be a part): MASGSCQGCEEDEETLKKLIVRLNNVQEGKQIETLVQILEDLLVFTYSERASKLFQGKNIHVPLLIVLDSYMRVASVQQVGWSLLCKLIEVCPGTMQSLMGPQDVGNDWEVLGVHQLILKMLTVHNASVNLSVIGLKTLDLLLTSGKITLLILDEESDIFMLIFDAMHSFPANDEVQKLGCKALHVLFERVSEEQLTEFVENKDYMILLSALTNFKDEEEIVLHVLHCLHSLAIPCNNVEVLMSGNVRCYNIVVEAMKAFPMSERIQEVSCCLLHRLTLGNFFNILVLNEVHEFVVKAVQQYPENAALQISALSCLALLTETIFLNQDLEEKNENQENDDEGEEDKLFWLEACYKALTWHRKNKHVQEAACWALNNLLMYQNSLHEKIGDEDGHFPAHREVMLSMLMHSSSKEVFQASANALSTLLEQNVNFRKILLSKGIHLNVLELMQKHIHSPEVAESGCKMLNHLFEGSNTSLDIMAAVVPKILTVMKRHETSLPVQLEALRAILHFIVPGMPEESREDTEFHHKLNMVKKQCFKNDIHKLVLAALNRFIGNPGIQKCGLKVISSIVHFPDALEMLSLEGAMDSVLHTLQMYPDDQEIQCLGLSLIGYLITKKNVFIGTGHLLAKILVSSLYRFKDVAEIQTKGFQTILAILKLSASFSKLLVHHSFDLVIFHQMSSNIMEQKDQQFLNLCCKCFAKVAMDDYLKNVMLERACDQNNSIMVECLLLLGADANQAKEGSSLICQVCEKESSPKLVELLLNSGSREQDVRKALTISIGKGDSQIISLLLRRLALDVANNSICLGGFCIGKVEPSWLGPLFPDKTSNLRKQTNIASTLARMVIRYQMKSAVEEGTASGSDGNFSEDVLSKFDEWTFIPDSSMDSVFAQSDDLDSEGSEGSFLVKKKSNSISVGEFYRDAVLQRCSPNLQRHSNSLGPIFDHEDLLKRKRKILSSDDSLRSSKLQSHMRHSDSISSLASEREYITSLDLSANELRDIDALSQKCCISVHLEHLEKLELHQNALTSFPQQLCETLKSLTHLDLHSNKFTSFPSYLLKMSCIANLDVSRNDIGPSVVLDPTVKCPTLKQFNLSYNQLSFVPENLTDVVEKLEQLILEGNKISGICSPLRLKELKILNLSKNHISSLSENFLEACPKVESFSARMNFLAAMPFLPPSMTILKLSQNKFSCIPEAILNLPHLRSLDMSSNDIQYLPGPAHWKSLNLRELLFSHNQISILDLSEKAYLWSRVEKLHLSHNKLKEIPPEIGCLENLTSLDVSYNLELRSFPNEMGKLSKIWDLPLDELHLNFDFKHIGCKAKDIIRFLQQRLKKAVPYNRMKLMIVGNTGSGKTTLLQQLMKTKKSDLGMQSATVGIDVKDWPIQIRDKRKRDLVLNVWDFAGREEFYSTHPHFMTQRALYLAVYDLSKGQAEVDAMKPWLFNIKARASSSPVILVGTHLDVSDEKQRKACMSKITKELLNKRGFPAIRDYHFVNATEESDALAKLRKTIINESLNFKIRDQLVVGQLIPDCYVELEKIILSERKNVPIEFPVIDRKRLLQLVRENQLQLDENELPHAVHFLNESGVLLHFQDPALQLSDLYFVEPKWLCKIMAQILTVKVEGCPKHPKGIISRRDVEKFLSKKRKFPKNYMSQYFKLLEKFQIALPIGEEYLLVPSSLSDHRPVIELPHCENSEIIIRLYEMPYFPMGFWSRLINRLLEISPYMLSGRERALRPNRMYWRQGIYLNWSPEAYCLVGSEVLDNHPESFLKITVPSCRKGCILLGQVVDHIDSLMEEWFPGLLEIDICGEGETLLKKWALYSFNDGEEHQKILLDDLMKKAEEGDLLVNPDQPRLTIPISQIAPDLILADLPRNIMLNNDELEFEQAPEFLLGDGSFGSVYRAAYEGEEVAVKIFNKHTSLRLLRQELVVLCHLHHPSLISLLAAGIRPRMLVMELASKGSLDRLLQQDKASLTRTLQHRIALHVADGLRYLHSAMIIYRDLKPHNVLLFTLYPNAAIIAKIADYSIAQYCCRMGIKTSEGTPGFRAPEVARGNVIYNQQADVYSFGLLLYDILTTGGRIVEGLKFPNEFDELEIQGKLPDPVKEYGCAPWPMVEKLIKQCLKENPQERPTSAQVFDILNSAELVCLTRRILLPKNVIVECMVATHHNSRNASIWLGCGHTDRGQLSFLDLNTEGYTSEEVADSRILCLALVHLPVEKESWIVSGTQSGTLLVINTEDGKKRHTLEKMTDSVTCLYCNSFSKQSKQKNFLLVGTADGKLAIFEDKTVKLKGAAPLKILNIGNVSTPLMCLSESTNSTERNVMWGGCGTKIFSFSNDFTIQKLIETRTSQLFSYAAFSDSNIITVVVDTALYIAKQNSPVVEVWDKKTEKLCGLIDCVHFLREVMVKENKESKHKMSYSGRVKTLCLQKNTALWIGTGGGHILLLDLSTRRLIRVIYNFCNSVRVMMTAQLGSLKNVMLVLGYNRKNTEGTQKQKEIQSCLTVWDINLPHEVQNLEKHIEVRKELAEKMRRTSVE
Assay: Inhibition of human GST-tagged LRRK2 G2019S mutant (970 to 2527 residues) expressed in baculovirus expression system assessed as reduction in ADP formation at 10 uM using LRRKtide as substrate measured after 1 hr in presence of ATP by Adapta assay relative to control

QUERY: Quick check: inhibition on Leucine-rich repeat serine/threonine-protein kinase 2 (Homo sapiens), Q5S007 [G2019S], item O=C(Nc1nc2ccc(C(F)(F)F)cc2s1)c1ccc(N2CCOCC2)cc1 ?
RESULT: 69%

QUERY: What do you get for O=C(Nc1nc2ccc(Br)cc2s1)c1ccc(N2CCOCC2)cc1 ?
RESULT: 70%

QUERY: Please do the same for Cc1ccc2nc(NC(=O)c3ccc(N4CCOCC4)cc3)sc2c1 as well.
RESULT: 71%

QUERY: And for CC(C)c1ccc2nc(NC(=O)c3ccc(N4CCOCC4)cc3)sc2c1 ?
RESULT: 70%
